Assay: Apparent clearance in Sprague-Dawley rat at 5 mg/kg, iv
Assay type: ADME, organism-based
Set-up: dose 5 mg/kg, route intravenous
Settings: in vivo, read-out: CL(app) (converted)
endpoint: clearance (mL/min/kg)
Respond numerically; units are mL/min/kg and should not be typed.

Exam item: What value of clearance has been recorded for this entry: N#C[C@@H]1C[C@H](F)CN1C(=O)[C@@H](N)Cc1cc2c(cc1Br)OCO2
Marked response: 43.5

* * *

Test: Apparent clearance in Sprague-Dawley rat at 20 mg/kg, iv
Format: ADME, organism-based
Design: dose 20 mg/kg, route intravenous
Details: in vivo, read-out: CL(app) (converted)
endpoint: clearance (mL/min/kg)
Please state the figure in mL/min/kg; there is no need to write the unit.

Exam item: Given N#C[C@@H]1C[C@H](F)CN1C(=O)[C@@H](N)Cc1cscn1 , state its recorded clearance.
Marked response: 116

* * *

Molecular target: Dipeptidyl peptidase 4 (Homo sapiens)
Sequence (P27487 whole entry): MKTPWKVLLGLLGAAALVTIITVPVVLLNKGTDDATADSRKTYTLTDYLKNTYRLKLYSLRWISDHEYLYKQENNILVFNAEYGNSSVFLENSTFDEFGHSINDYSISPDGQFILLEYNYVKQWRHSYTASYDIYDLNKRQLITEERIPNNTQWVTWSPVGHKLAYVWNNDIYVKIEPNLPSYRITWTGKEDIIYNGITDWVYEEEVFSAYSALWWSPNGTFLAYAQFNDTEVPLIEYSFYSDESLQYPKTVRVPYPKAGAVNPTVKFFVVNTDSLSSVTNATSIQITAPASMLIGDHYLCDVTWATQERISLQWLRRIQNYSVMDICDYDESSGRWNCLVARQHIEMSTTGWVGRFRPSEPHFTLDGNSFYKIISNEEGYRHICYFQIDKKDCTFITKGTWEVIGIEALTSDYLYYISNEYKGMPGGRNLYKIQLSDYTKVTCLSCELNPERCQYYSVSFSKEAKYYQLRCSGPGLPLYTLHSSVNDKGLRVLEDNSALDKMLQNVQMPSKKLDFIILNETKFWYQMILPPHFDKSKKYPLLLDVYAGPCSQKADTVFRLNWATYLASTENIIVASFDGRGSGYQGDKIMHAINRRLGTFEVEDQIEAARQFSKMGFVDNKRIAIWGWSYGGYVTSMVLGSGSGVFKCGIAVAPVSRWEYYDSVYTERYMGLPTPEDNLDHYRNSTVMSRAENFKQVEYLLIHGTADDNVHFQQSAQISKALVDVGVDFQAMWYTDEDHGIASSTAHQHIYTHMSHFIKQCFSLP
Assay: Inhibition of recombinant his6-tagged DPP4 (unknown origin) expressed in baculovirus expression system using Ala-pro-AMC as substrate by fluorometric analysis
endpoint: IC50 (µM)
Express your answer in µM, writing the number without its unit.

Exam item: Need IC50 of N#C[C@@H]1CCCN1C(=O)[C@@H](N)Cc1ccoc1 , thanks.
Marked response: 114

* * *

Experiment: AUC (0 to infinity) in Sprague-Dawley rat at 50 mg/kg, po
Type: ADME, organism-based
Parameters: time infinity, dose 50 mg/kg, route oral
Details: plasma
endpoint: AUC(0-inf) (ng·h/mL)
Could you give me the number in ng·h/mL? Just the number is fine.

Exam item: Tell me the measured AUC(0-inf) of N#C[C@@H]1C[C@H](F)CN1C(=O)[C@@H](N)Cc1cscn1 , please.
Marked response: 2840

* * *

Target: Dipeptidyl peptidase 9 (Homo sapiens)
Sequence (Q86TI2 whole entry): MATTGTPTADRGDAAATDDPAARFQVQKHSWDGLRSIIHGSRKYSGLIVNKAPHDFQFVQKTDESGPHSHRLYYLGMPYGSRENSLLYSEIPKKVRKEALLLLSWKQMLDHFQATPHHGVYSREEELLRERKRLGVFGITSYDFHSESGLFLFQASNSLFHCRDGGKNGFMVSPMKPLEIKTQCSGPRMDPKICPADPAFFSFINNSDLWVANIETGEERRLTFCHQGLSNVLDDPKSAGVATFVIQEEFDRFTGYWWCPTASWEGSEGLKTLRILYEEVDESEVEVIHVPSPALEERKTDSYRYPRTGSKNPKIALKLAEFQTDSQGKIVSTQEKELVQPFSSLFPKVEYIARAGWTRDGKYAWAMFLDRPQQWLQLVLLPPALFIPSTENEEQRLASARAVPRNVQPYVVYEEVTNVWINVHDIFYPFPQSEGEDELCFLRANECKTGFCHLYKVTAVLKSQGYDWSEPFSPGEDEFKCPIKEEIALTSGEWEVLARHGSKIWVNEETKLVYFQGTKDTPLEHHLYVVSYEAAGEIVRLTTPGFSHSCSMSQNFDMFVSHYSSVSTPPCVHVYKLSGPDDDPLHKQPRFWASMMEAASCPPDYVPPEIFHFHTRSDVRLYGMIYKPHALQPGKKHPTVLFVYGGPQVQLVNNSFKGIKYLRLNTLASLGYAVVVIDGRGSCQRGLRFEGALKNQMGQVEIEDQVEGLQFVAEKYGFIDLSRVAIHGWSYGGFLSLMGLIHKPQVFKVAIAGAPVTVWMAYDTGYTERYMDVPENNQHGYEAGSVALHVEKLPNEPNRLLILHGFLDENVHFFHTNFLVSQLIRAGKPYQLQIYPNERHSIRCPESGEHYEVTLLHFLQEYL
Test: Inhibition of recombinant his6-tagged DPP9 (unknown origin) expressed in baculovirus expression system using Ala-pro-AMC as substrate by fluorometric analysis
endpoint: IC50 (µM)
Return type: number; implicit unit µM.

Exam item: Reported IC50, compound N#C[C@@H]1CCCN1C(=O)[C@@H](N)Cc1ccccn1 : ____
Marked response: 144

* * *

Target: Dipeptidyl peptidase 8 (Homo sapiens, UniProt Q6V1X1)
Sequence (Q6V1X1 whole entry): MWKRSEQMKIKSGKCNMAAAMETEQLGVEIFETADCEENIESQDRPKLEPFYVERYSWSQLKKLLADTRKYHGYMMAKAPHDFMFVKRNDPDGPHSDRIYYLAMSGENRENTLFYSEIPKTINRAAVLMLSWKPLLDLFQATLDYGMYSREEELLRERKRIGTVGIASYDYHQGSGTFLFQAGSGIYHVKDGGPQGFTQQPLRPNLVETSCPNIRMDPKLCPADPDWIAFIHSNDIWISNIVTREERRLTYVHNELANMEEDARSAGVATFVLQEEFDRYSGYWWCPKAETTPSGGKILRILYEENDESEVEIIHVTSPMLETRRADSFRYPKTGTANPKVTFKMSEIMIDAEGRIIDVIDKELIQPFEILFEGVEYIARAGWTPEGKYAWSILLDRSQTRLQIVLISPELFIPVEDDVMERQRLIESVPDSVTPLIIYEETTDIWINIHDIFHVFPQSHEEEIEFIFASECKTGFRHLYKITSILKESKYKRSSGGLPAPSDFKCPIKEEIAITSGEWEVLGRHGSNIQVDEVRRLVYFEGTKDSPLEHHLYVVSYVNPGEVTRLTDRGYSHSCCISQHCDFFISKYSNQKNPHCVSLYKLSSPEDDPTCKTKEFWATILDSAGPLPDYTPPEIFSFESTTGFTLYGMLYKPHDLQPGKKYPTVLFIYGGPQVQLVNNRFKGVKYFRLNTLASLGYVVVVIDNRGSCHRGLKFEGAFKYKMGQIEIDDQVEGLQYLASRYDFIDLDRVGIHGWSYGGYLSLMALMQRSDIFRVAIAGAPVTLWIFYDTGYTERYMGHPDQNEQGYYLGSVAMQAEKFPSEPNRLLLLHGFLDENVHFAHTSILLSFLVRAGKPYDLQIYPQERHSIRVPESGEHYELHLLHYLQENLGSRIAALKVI
Assay: Inhibition of recombinant his6-tagged DPP8 (unknown origin) expressed in baculovirus expression system using Ala-pro-AMC as substrate by fluorometric analysis
endpoint: pIC50
FYI, pIC50 means -log10 of a concentration in mol per litre.

Exam item: Endpoint output: pIC50 of N#C[C@@H]1CCCN1C(=O)[C@@H](N)Cc1ccccn1 . Value?
Marked response: 3.90

* * *

Test: Half life in Sprague-Dawley rat at 20 mg/kg, iv
Type: ADME, organism-based
Set-up: dose 20 mg/kg, route intravenous
Details: in vivo
endpoint: half-life (h)
Provide only the numeric value, understood in h.

Exam item: Value lookup for half-life; key = N#C[C@@H]1C[C@H](F)CN1C(=O)[C@@H](N)Cc1cscn1
Marked response: 2.27
